Target: streptavidin (Streptomyces avidinii, UniProt P22629)
Sequence (P22629 25-183): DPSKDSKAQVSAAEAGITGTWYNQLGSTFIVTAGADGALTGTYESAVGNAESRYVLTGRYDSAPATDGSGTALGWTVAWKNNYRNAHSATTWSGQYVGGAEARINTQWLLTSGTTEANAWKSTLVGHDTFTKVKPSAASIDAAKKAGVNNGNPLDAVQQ
Experiment: Streptavidin-binding phage ELISA
Settings: Figure 6a; phage clone, peptide linear (reduced using DTT); bound phage detected with anti-M13-HRP
// classify: if (Phage ELISA signal, Linear < 0.3) satisfied else not satisfied

Challenge: Strictly below 0.3: is that where Phage ELISA signal, Linear of CPFNIASPFYGC [Str6, phage clone displaying streptavidin-selected peptide] sits?
Response given: satisfied

Challenge: Find out if reported Phage ELISA signal, Linear for CPYNVERPDSHC [Str8, phage clone displaying streptavidin-selected peptide] is less than 0.3
Response given: satisfied

Challenge: Regarding CPFNIKNPDDGC [Str2, phage clone displaying streptavidin-selected peptide] , kindly confirm whether its Phage ELISA signal, Linear is beneath 0.3.
Response given: satisfied

Challenge: is_below(Phage ELISA signal, Linear, 0.3) for CWLNHPQAPPEC [reference compound] ?
Response given: not satisfied

Challenge: hey, is Phage ELISA signal, Linear for CPYNIINPTFDC [Str5, phage clone displaying streptavidin-selected peptide] lower than 0.3 or not?
Response given: satisfied

Challenge: Input CPFNILVPFIDC [Str4, phage clone displaying streptavidin-selected peptide] ; condition: Phage ELISA signal, Linear strictly below 0.3. Does it hold?
Response given: satisfied

Challenge: Does this substance meet the criterion Phage ELISA signal, Linear < 0.3? CGGSGGC [negative control phage construct, reference compound]
Response given: satisfied

Challenge: Please indicate whether the reported Phage ELISA signal, Linear of CPFNFFIWNDEC [Str9, phage clone displaying streptavidin-selected peptide] is strictly below 0.3.
Response given: not satisfied

---

Target: streptavidin (Streptomyces avidinii, UniProt P22629)
Test: Sequencing of clones enriched after three rounds of selection of library L1-CCA against streptavidin
Details: clones sequenced after three rounds of selection against streptavidin
Positions of bridges follow the written chain, without caps; N, C: chain ends. No end group written: not given here.
measured.property: Abundance (Total = 96)
Output spec: single numeric token, no unit.

Challenge: Specify measured Abundance (Total = 96) for CPINIFHPPPDC (disulfide 1-12 (inferred)) [Str1, streptavidin-selected peptide; tested as phage clone and as synthetic disulphide-bonded peptide] .
Response given: 42

Challenge: Give the measured Abundance (Total = 96) for CPYNIINPTFDC [Str5, phage clone displaying streptavidin-selected peptide]
Response given: 8

Challenge: Provide one value: measured Abundance (Total = 96) of CPYNVERPDSHC [Str8, phage clone displaying streptavidin-selected peptide]
Response given: 2

---

Parameter: Abundance (Total = 96). Scope: all listed entries.
Biological target: streptavidin (Streptomyces avidinii, UniProt P22629)
Assay: Sequencing of clones enriched after three rounds of selection of library L1-CCA against streptavidin
Settings: clones sequenced after three rounds of selection against streptavidin
Experimental: Streptavidin-coated magnetic Dynabeads™ (50 μL/ selection, prewashed with 1 mL PBS) were blocked with 3% (w/v) mPBS (1 mL) for 1 h on a rotary mixer at room temperature and 20 RPM. L1 phage particles (~ 10^11) were reduced with DTT (1 mM) for 30 min at 37 °C in PBS (total reaction volume = 100 µL). The beads were pelleted on a magnetic stand and reduced L1 phage particles (~ 10^11) were added. […]
// keep it numeric: no unit symbol after the value

For orientation, consider the following solved cases.
INSERT INTO assay_data (sequence_text, experimental_target, measured_property, meas_value) VALUES
  ('CPFNIASPFYGC [Str6, phage clone displaying streptavidin-selected peptide]', 'streptavidin (Streptomyces avidinii, UniProt P22629)', 'Abundance (Total = 96)', 12),
  ('CPFNIKNPDDGC [Str2, phage clone displaying streptavidin-selected peptide]', 'streptavidin (Streptomyces avidinii, UniProt P22629)', 'Abundance (Total = 96)', 7),
  ('CPFNILVPFIDC [Str4, phage clone displaying streptavidin-selected peptide]', 'streptavidin (Streptomyces avidinii, UniProt P22629)', 'Abundance (Total = 96)', 5);

Challenge: Report Abundance (Total = 96) for CPINVQYSTGTC [Str7, phage clone displaying streptavidin-selected peptide]
Response given: 1

---

Molecular target: streptavidin (Streptomyces avidinii, UniProt P22629)
Test: Streptavidin-binding phage ELISA
Conditions: Figure 6a; phage clone, peptide linear (reduced using DTT); bound phage detected with anti-M13-HRP
Positions of bridges follow the written chain, without caps; N, C: chain ends. No end group written: not given here.
measured.property: Phage ELISA signal, Linear
A bare number is all that is needed in reply.

INSERT INTO measurements (sequence_text, measured_property, meas_value) VALUES
  ('CPYNIAGPPLYC [Str3, phage clone displaying streptavidin-selected peptide]', 'Phage ELISA signal, Linear', 0.123),
  ('CPINVQYSTGTC [Str7, phage clone displaying streptavidin-selected peptide]', 'Phage ELISA signal, Linear', 0.032);

Challenge: Give the reported value of Phage ELISA signal, Linear for this record: CPINIFHPPPDC (disulfide 1-12 (inferred)) [Str1, streptavidin-selected peptide; tested as phage clone and as synthetic disulphide-bonded peptide]
Response given: 0.115

---

Target: streptavidin (Streptomyces avidinii, UniProt P22629)
Assay: Sequencing of clones enriched after three rounds of selection of library L1-CCA against streptavidin
Conditions: clones sequenced after three rounds of selection against streptavidin
measured.property: Abundance (Total = 96)
Give the figure by itself; no unit, no explanation.

Challenge: Specify measured Abundance (Total = 96) for CPYNIAGPPLYC [Str3, phage clone displaying streptavidin-selected peptide] .
Response given: 13

Challenge: Please supply the value of reported Abundance (Total = 96) for the item CPFNFFIWNDEC [Str9, phage clone displaying streptavidin-selected peptide]
Response given: 2

Challenge: Identify measured Abundance (Total = 96) corresponding to CPTNTQYDLTIC
Response given: 4
